Data origin: PubChem BioAssay (NCI)

system: SNB-19 CNS; test: NCI-60 one-dose screen, 48 h; conditions: 10 µM unless noted
The panel holds about 83,000 compounds, 20% with a hit somewhere; the sample as a whole holds those more often. The source made the active and inactive calls. Rule for the calls: active = growth percent below 10; inactive = the rest.
Outcomes: active, inactive

compound	tested-on	label-class
CC([C@H]1CCC2C3CCC4C[C@@H](N)CC[C@]4(C)C3CC[C@@]21C)N(C)C (some centres undefined)	SNB-19 CNS	inactive
CCCC(=O)NNc1[nH]c(-c2cc(OC)c(OC)c(OC)c2)cc1C(=O)OCC	SNB-19 CNS	inactive
COC(=O)[C@H](Cc1cn(C)cn1)NC(=O)[C@H](CC(=O)OCc1ccccc1)NC(=O)Nc1cc(C(F)(F)F)cc(C(F)(F)F)c1	SNB-19 CNS	active
COc1ccc(CN2C(=O)/C(=C\C(=O)c3ccc(OCCN4CCCCC4)cc3)c3ccccc32)cc1	SNB-19 CNS	inactive
CCOC(=O)c1c(C)oc2ncnc(Nc3ccc(C(=O)NCCc4ccccc4)cc3)c12	SNB-19 CNS	inactive
COc1cccc(CNC(=O)c2cccc(C3CC(=O)c4c(cc(OC)c(OC)c4OC)O3)c2)c1 (centres undefined)	SNB-19 CNS	inactive
COC(=O)Nc1nc2ccc(C(=O)c3ccccc3N(C)C3COC3)cc2[nH]1	SNB-19 CNS	inactive
CCOC(=O)CNS(=O)(=O)CC(=O)c1ccccc1	SNB-19 CNS	inactive
COc1cccc(NC(=O)NCCNc2nccc(-c3c(-c4ccc(F)cc4)nc4sccn34)n2)c1	SNB-19 CNS	inactive
